Would you mind telling me the reported log10 IC50 of each entry?
TARGET: HDAC6 (Homo sapiens)
Sequence (Q9UBN7 whole entry): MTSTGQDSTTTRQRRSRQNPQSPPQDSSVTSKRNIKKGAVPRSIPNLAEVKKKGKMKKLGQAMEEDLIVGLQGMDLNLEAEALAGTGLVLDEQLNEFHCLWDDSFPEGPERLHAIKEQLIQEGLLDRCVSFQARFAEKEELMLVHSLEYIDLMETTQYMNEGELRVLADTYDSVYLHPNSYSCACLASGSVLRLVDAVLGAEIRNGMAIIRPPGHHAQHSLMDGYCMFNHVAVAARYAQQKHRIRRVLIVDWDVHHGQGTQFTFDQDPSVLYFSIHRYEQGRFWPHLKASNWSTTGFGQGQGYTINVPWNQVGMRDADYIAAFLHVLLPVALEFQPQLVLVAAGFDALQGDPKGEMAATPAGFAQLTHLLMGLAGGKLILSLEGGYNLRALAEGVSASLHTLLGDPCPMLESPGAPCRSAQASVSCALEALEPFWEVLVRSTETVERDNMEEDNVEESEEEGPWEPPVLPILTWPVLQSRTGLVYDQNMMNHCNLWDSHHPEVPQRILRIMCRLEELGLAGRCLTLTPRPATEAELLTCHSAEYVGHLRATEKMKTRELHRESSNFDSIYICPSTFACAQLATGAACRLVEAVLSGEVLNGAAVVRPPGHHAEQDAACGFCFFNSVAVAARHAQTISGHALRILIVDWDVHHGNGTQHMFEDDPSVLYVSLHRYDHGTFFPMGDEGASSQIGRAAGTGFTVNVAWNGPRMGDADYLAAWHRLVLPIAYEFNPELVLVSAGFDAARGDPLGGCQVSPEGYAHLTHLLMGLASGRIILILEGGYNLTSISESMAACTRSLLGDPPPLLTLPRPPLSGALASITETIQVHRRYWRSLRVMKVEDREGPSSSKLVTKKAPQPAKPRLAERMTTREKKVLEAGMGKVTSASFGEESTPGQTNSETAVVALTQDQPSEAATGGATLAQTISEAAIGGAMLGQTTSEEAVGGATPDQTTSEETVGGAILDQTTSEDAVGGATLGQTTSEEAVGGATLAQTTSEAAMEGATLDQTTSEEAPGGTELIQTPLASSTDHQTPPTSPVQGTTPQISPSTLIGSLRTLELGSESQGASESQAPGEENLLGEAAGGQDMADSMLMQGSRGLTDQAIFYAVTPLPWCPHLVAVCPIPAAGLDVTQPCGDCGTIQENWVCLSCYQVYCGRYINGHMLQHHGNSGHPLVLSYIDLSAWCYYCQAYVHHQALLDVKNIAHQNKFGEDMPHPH
METHOD: Human HDAC enzyme inhibitor Fluor-de-Lys assay, HDAC6
Type: biochemical
Reminder: these figures are log10 of reported IC50, in µM before transformation.

Fill in log10 IC50 for each of the 4 compounds listed.
1. CCC(=O)CCCCC[C@H](NC(=O)[C@H]1CC12CCN(C)CC2)c1ncc(-c2ccc3nc(C4CC4)oc3c2)[nH]1
2. CCC(=O)CCCCC[C@H](NC(=O)[C@H]1CC12CCN(C)CC2)c1nc(Cl)c(-c2cc3ccccc3nc2O)[nH]1
3. CCC(=O)CCCCC[C@H](NC(=O)[C@H]1CC12CCN(C)CC2)c1ncc(-c2ccc3c(ccc(=O)n3C)c2)o1
4. CCC(=O)CCCCC[C@H](NC(=O)[C@H]1CC12CCN(CC)CC2)c1ncc(-c2ccc(OC)cc2OC)[nH]1

Found:
1: 1.02; 2: 0.59; 3: 1.13; 4: -0.05

Kindly give each listed record's log10 IC50.
1. CCC(=O)CCCCC[C@H](NC(=O)[C@@H]1CC12CCOCC2)c1ncc(-c2cc3ccccc3nc2OC)[nH]1
2. CCC(=O)CCCCC[C@H](NC(=O)[C@H]1CC12CCN(C(C)C)CC2)c1ncc(-c2ccc3nc(C)ccc3c2)[nH]1
3. CCC(=O)CCCCC[C@H](NC(=O)[C@H]1CC12CCN(C)CC2)c1ncc(-c2ccc3c(=O)n(C)ccc3c2)o1

Found:
0.55
0.42
0.44

Could you tell me log10 IC50 for each of these compounds? They are listed below.
1. CCC(=O)CCCCC[C@H](NC(=O)[C@H]1CC12CCN(CC)CC2)c1ncc(-c2ccc3c(ccc(=O)n3C)c2)o1
2. CCC(=O)CCCCC[C@H](NC(=O)[C@H]1CC12CCN(CC1CC1)CC2)c1ncc(-c2ccc3nc(C4CC4)ccc3c2)o1

Found:
[0.85, 0.63]

###

Provide the recorded IC50 for the entries that follow.
TARGET: Recombinant human HDAC8 (Homo sapiens)
Construct: purchased Enzo Life Sciences BML-SE145-0100
METHOD: Human HDAC enzyme inhibitor Fluor-de-Lys assay, HDAC8
Type: biochemical

Could you report IC50 for every entry in the following list?
1. CCC(=O)CCCCC[C@H](NC(=O)[C@H]1CC12CCN(C)CC2)c1ncc(-c2cc3ccc(=O)n(C)c3cc2OC)o1 [Compound 198]
2. CCC(=O)CCCCC[C@H](NC(=O)[C@H]1CC12CCN(C(C)C)CC2)c1ncc(-c2ccc3c(ccc(=O)n3C)c2)o1 [Compound 96]
3. CCC(=O)CCCCC[C@H](NC(=O)[C@H]1CC12CCN(C)CC2)c1ncc(-c2ccc3c(ccc(=O)n3C)c2)o1 [Compound 109]
4. CCC(=O)CCCCC[C@H](NC(=O)C1=NOC2(CCN(C)CC2)C1)c1ncc(-c2cc3ccncc3nc2OC)o1 [Compound 216]

Found:
["> 0.9 µM", "> 45 µM", "> 15 µM", "> 0.9 µM"]

###

Consider the following molecules; for each one, report its IC50.
TARGET: Recombinant human HDAC8 (Homo sapiens)
Construct: purchased Enzo Life Sciences BML-SE145-0100
METHOD: Human HDAC enzyme inhibitor Fluor-de-Lys assay, HDAC8
Type: biochemical
TEST CONTEXT: recombinant human HDAC8, Fluor-de-Lys assay

Report IC50 for every entry below.
1. CCC(=O)CCCCC[C@H](NC(=O)C1=NOC2(CCN(CC)CC2)C1)c1ncc(-c2cc3ccc(C)nc3cc2F)[nH]1
2. CCC(=O)CCCCC[C@H](NC(=O)C1CC12CCOCC2)c1ncc(-c2cc3ccc(C)nc3cc2OC)[nH]1 (single isomer, unassigned) [Compound 407]
3. CCC(=O)CCCCC[C@H](NC(=O)[C@@H]1CC12CCN(CC)CC2)c1ncc(-c2cc3ccccc3[nH]c2=O)[nH]1
4. CCC(=O)CCCCC[C@H](NC(=O)C1CC12CCOCC2)c1ncc(-c2cc3ccc(C)nc3cc2OC)[nH]1 (single isomer, unassigned) [Compound 413]

Found:
> 900 nM
> 900 nM
> 4500 nM
> 900 nM

###

TARGET: Recombinant human HDAC3/SMRT heterodimer (Homo sapiens)
Construct: FLAG (C); made in house
Sequence (O15379 whole entry): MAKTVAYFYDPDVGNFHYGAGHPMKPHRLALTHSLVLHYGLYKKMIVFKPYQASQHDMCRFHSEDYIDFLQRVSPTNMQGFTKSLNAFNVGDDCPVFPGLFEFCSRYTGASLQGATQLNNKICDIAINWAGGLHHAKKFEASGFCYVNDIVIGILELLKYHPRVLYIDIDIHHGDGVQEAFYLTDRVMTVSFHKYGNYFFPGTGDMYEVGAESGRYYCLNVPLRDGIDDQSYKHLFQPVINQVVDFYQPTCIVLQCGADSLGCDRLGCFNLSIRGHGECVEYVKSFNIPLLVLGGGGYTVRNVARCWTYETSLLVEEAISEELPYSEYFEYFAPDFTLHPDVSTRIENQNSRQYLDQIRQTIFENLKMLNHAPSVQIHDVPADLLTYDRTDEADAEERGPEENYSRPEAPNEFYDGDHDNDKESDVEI
Sequence (Q9Y618 1-899 partner limits assumed): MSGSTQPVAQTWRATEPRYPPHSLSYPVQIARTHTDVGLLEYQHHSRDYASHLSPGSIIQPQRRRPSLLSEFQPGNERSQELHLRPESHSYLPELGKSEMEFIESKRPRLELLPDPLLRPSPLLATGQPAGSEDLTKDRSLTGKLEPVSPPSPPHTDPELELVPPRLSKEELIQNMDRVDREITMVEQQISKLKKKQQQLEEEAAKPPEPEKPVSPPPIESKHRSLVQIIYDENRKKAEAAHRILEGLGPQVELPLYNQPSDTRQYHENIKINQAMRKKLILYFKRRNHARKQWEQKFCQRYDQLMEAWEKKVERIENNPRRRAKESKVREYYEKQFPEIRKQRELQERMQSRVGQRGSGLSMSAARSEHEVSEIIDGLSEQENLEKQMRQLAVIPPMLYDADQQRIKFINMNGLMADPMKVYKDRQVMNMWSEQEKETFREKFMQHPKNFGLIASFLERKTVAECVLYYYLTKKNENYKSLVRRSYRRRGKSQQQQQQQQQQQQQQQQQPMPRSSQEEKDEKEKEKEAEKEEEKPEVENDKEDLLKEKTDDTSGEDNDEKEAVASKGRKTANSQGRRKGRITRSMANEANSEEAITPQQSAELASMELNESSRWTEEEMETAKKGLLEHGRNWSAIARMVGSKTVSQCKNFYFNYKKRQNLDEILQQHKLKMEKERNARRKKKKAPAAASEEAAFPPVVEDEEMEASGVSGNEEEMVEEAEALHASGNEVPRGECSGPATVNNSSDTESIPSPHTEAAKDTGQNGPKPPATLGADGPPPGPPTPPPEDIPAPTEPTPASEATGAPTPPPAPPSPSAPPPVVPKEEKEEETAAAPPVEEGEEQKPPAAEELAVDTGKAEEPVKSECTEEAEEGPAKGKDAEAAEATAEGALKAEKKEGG
METHOD: Human HDAC enzyme inhibitor Fluor-de-Lys assay, HDAC3/SMRT
Format: biochemical
TEST CONTEXT: recombinant human HDAC3/SMRT, Fluor-de-Lys assay
ENDPOINT NAME: pIC50
Answers are plain numbers, as −log10 of the molar value.

molecule="CCC(=O)CCCCCC(NC(=O)C1CC12CCN(CC)CC2)c1nc(-c2ccc(F)cc2)[nH]c1-c1ccnn1C (centres unmarked)" endpoint_name=pIC50 test_result=7.78
molecule="CCC(=O)CCCCCC(NC(=O)C1CCC2(CC1)OC(=O)c1ccncc12)c1nnc(-c2cc3ccccc3nc2OC)o1 (centres unmarked)" endpoint_name=pIC50 test_result=7.48
molecule=CCC(=O)CCCCC[C@H](NC(=O)C1=NOC2(CCN(C)CC2)C1)c1ncc(-c2ccc(Cl)cc2OC)o1 endpoint_name=pIC50 test_result=7.40

For each listed entry, give its pIC50.
1. CCC(=O)CCCCC[C@H](NC(=O)C1CC12CCN(CC)CC2)c1nc(-c2ccc(F)cc2)[nH]c1-c1ccn(C)c1 (some centres unmarked)
2. CCC(=O)CCCCC[C@H](NC(=O)C1=NOC2(CCN(C)CC2)C1)c1ncc(-c2cc3ccc(C)nc3cc2F)[nH]1
3. CCC(=O)CCCCC[C@H](NC(=O)CC1CC2(C1)CN(C)C2)c1ncc(-c2cc3ccccc3nc2O)[nH]1

Found:
[8.74, 8.35, 8.80]

Provide reported pIC50 for each item, in the same order as listed.
1. CCC(=O)CCCCC[C@H](NC(=O)[C@H]1CC12CCN(C)CC2)c1ncc(-c2ccc(F)cc2)[nH]1
2. CCC(=O)CCCCC[C@H](NC(=O)[C@H]1CC12CCN(C)CC2)c1ncc(-c2ccc(C(F)(F)F)cc2)[nH]1
3. CCC(=O)CCCCC[C@H](NC(=O)[C@H]1CC12CCN(C)CC2)c1ncc(-c2cc3ccc(N(C)C)nc3cc2OC)o1
4. CCC(=O)CCCCC[C@H](NC(=O)C1=NOC2(CCN(C)CC2)C1)c1ncc(-c2ccc(-c3cnccn3)cc2OC)o1

Found:
[7.97, 8.22, 8.98, 8.22]

For reference, reported pIC50 for CCC(=O)CCCCC[C@H](NC(=O)[C@H]1CC12CCN(C)CC2)c1ncc(-c2ccc3ccc(C)nc3c2F)[nH]1 stands at 8.66

###

TARGET: Recombinant human HDAC8 (Homo sapiens, UniProt Q9BY41)
Construct: purchased Enzo Life Sciences BML-SE145-0100
Sequence (Q9BY41 1-377): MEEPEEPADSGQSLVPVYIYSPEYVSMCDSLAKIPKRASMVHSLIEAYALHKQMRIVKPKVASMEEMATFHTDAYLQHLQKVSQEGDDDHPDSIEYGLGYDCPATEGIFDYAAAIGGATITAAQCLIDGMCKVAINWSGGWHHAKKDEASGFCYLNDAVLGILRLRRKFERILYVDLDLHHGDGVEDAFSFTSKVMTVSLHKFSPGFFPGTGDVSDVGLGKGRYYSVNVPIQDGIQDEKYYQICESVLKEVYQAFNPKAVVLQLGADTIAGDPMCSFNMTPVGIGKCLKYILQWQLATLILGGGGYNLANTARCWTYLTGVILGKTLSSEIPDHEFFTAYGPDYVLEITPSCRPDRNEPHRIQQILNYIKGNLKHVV
METHOD: Human HDAC enzyme inhibitor Fluor-de-Lys assay, HDAC8
Type: biochemical
TEST CONTEXT: recombinant human HDAC8, Fluor-de-Lys assay
pIC50: −log10 of the molar value.
I'd appreciate it if you could supply pIC50 values for the items below.

# count of solved cases: 2
compound=CCC(=O)CCCCC[C@H](NC(=O)[C@H]1CC12CCN(CC)CC2)c1ncc(-c2cc3ccccc3nc2O)[nH]1 test_result="< 4.82"
compound=CCC(=O)CCCCC[C@H](NC(=O)C1=NOC2(CCN(C)CC2)C1)c1ncc(-c2ccc(-c3cccnc3)cc2OC)o1 test_result="< 6.05"

Below is a list of compounds. For each, state its recorded pIC50.
1. CCC(=O)CCCCC[C@H](NC(=O)C1=NOC2(CCN(CC3CC3)CC2)C1)c1ncc(-c2cc3ccc(C)nc3cc2F)[nH]1
2. CCC(=O)CCCCC[C@H](NC(=O)C1CC12CCOCC2)c1ncc(-c2cc3ccc(C)nc3cc2OC)o1 (single isomer, unassigned) [Compound 410]
3. CCC(=O)CCCCC[C@H](NC(=O)C1=NOC2(CCN(C)CC2)C1)c1ncc(-c2ccc(Cl)cc2OC)o1
4. CCC(=O)CCCCC[C@H](NC(=O)[C@H]1CC12CCN(CC1CC1)CC2)c1ncc(-c2cc3ccn(C)c(=O)c3cc2OC)o1

Found:
< 6.05
< 6.05
< 6.05
< 6.05
